Biological target: T1, hFc-human LIGHT (human)
T1 construct: also called hFc-huLIGHT
Assay: competition ELISA, LTβR-His coated, hFc-huLIGHT added
Catalogue of IC50 values
Write the value in nM as a bare number.

{"columns": ["binder", "IC50, nM"],
 "data": [
  ["hum_LT-m58-5 (antibody, human IgG4, V domains shown, humanized from LT-m58) VH: QVQLVQSGAEVKKPGASVKVSCKASGYTFIDHIMNWVRKAPGQGLEWIGRIYPVSGETNYNQKFMGRVTFTVDRSTSTVYMELSSLRSEDTAVYYCGRGSYYWNAMDYWGQGTLVTVSS VL: EIVMTQSPATLSVSPGERATLSCKASQSVDFDGESYMNWYQQKPGQAPRLLIYSASNLESGIPARFSGSGSGTEFTLTISSLQSEDFAVYYCQQSIEDPWTFGQGTKVEIK", 0.746],
  ["hum_LT-m58-2 (antibody, human IgG4, V domains shown, humanized from LT-m58) VH: QVQLVQSGAEVKKPGASVKVSCKASGYTFIDHIMNWVRKAPGQGLEWIGRIYPVSGETNYNQKFMGRVTFTVDRSTSTVYMELSSLRSEDTAVYYCGRGSYYWNAMDYWGQGTLVTVSS VL: EIVMTQSPATLSVSPGERATLSCKASQSVDFDGDSYMNWYQQKPGQAPRLLIYSASNLESGIPARFSGSGSGTEFTLTISSLQSEDFAVYYCQQSIEDPWTFGQGTKVEIK", 0.258]
]}

Please turn your attention to the following entry.
Prompt: Item under review: hum_LT-m58-3 (antibody, human IgG4, V domains shown, humanized from LT-m58) VH: QVQLVQSGAEVKKPGASVKVSCKASGYTFIDHIMNWVRKAPGQGLEWMGRIYPVSGETNYNQKFMGRATFTVDRSTSTVYMELSSLRSEDTAVYYCGRGSYYWNAMDYWGQGTLVTVSS VL: DIVMTQSPDSLAVSLGERATINCKASQSVDFDGDSYMNWYQQKPGQPPKLLIYSASNLESGVPDRFSGSGSGTDFTLTISSLQAEDVAVYYCQQSIEDPWTFGQGTKVEIK . Reported IC50?
Completion: 0.169
